# target.or.system: mouse BLyS protein (mouse, UniProt Q9WU72 69-309)
# Sequence (Q9WU72 69-309): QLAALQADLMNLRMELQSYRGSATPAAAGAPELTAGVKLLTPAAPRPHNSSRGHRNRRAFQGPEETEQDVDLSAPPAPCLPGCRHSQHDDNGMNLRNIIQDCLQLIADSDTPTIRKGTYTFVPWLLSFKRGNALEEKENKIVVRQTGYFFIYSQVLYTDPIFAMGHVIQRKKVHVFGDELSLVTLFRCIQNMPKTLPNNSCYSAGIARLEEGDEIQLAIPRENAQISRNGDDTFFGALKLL
# assay.overview: cell-based or functional assay
parameter: mouse B lymphocyte proliferation (OD450 nm), antibody 0 nM
One number for each entry, in OD450 nm.

Data request: Quickly give me recorded mouse B lymphocyte proliferation (OD450 nm), antibody 0 nM for 35E6F7C3 (antibody, V domains shown, Mouse hybridoma monoclonal antibody purified on Protein G) VH: EVQLQQSGAELVKPGASVKLSCTAAGFNIQDTYIHWVKQRPEQGLEWIGRIDPANANTVYDPKFQGKATITADTSSNTAYLQVSSLTSEDTAVYYCASPVITAGFAYWGQGTLVTVSA VL: QIVLTQSPAIMSASPGEKVTMTCGASSSVNYVHWYQQKSGTSPKRWIYDTSKLASGVPARFSGSGSGTSYSLTISSMEAEDAATYYCQQWTRSPLTFGAGTKVELK
Data returned: 2160
